target: mu opioid receptor (MOR) (UniProt P35372); assay: competition
Sequence (P35372 whole entry): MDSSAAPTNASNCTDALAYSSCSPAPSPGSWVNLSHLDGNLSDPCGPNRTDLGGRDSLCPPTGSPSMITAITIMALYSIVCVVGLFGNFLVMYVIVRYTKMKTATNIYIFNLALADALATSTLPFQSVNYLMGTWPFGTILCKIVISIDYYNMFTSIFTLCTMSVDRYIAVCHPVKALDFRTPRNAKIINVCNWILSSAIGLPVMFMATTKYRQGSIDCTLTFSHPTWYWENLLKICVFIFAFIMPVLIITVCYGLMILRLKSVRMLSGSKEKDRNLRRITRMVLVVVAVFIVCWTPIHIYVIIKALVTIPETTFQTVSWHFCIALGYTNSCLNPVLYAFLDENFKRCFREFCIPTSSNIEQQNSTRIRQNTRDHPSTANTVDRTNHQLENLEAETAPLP
Non-standard residues stand in square brackets, D forms with d. No end group written: not given here. *: point of attachment. NMePhe(4-F) = CN[C@@H](Cc1ccc(F)cc1)C(=O)O; Phe(4-F) = N[C@@H](Cc1ccc(F)cc1)C(=O)O; NMeF = CN[C@@H](Cc1ccccc1)C(=O)O; NHBn = c1ccc(CN*)cc1
Note to self: use true (1) only for Ki readings below 50 nM; a reading exactly at 50 nM still gets false (0).

Y[dA]GF[dN]PLW-NHBn [AKG102]	false (0)
Y[dA]G[NMePhe(4-F)]QPLW-NHBn [AKG143]	true (1)
Y[dA]GFQPLW (not fully specified (C-terminus)) [AKG105]	true (1)
Y[dA]GF[dQ]PLW (not fully specified (C-terminus)) [AKG103]	false (0)
Y[dA]G[Phe(4-F)]QPLW-NHBn [AKG142]	true (1)

Next up:
Exercise: Does the reported Ki of the following binder sit strictly below 50 nM? Y[dA]G[NMeF]QPLW (not fully specified (C-terminus)) [AKG129]
Key: true (1)
